Some compounds, each annotated with its measured pIC50.
- testSystem: full-length MALT1 protein His-MALT1(1-824) (Homo sapiens)
- Sequence (Q9UDY8 1-824): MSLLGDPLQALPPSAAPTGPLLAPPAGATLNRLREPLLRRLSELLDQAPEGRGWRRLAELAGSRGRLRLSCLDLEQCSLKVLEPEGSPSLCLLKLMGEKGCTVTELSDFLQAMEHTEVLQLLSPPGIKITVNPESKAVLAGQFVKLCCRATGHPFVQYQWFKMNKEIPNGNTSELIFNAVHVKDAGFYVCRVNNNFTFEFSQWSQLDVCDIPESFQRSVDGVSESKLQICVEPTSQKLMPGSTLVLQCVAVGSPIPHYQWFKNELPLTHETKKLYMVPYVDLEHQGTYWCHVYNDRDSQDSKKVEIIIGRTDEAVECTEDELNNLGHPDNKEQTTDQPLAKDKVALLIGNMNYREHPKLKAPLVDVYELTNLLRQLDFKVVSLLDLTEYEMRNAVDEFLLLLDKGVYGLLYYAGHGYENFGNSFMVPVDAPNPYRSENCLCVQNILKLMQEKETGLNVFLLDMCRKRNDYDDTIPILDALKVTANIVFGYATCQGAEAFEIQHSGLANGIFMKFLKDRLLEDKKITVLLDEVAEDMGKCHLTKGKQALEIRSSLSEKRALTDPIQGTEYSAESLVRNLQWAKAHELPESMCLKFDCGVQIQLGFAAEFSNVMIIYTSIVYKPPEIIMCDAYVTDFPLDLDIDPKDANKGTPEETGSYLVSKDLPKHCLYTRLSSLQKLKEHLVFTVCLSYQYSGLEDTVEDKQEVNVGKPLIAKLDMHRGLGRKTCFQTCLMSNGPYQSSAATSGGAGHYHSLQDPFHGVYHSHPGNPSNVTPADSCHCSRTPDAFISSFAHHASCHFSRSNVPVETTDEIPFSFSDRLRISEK
pIC50: −log10 of the molar value.

>  <compound>
Cn1nccc1[C@@]1(C)C[C@H](C(=O)Nc2cnc(-n3nccn3)c(Cl)c2)c2cnc3cc(F)nn3c21 (single isomer, unassigned)

>  <pIC50>
7.00 to 8.00

$$$$
>  <compound>
C[C@]1(c2cnn(C(F)F)c2)CC(C(=O)Nc2cnc(-n3nccn3)c(C(F)(F)F)c2)c2cnc3cc(F)nn3c21 (single isomer, unassigned)

>  <pIC50>
6.00 to 7.00

$$$$
>  <compound>
C[C@@]1(c2cnn(CC(F)(F)F)c2)C[C@H](C(=O)Nc2cnc(-n3nccn3)c(Cl)c2)c2cnc3cc(F)nn3c21 (single isomer, unassigned)

>  <pIC50>
7.00 to 8.00

$$$$

###

- testSystem: full-length MALT1 protein His-MALT1(1-824) (Homo sapiens, UniProt Q9UDY8)
- Sequence (Q9UDY8 1-824): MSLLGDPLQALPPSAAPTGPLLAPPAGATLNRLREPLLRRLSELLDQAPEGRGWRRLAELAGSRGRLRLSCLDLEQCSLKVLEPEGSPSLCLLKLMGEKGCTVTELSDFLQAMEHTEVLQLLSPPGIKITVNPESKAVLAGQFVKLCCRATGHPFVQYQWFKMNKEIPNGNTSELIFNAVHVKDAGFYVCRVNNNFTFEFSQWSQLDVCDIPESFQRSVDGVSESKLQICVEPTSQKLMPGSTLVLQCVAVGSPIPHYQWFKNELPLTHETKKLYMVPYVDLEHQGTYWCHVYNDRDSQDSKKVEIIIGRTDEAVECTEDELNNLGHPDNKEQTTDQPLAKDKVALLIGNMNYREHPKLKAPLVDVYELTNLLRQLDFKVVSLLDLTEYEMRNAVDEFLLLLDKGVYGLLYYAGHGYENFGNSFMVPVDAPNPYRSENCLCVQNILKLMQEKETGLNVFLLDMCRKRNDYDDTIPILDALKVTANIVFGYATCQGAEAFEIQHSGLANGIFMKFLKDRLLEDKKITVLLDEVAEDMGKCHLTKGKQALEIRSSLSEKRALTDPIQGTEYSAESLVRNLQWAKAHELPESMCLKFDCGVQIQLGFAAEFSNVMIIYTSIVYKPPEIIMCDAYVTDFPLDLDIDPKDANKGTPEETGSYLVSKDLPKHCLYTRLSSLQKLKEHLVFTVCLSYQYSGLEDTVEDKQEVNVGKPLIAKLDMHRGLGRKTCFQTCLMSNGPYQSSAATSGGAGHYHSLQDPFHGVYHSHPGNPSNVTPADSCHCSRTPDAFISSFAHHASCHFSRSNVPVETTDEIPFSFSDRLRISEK
Quick reference for IC50 among some compounds
readout: IC50

>  <compound>
Cn1cc([C@]2(C)C[C@H](C(=O)Nc3cnc(-n4nccn4)c(C(F)(F)F)c3)c3cnc4cc(F)nn4c32)cn1 (single isomer, unassigned)

>  <readout>
IC50

>  <reportedMeasurement>
0.1 to 1 µM

$$$$
>  <compound>
Cn1cc([C@@]2(C)C[C@@H](C(=O)Nc3cnc(OC(F)F)c(C#N)c3)c3cnc4cc(F)nn4c32)cn1 (single isomer, unassigned)

>  <readout>
IC50

>  <reportedMeasurement>
0.1 to 1 µM

$$$$
>  <compound>
CC1(c2ccn(C(F)F)n2)CC(C(=O)Nc2cnc(-c3cccnn3)c(C(F)(F)F)c2)c2cnc3cc(F)nn3c21 (single isomer, unassigned)

>  <readout>
IC50

>  <reportedMeasurement>
0.01 to 0.1 µM

$$$$
